B1: GLTSCR2 (parent)
chain: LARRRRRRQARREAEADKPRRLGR

Variants of: B1
Assay: protein stability index of a GFP-peptide fusion (GPS, HEK-293T) (PSI 1-6); higher = more stable;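 also: lentivirally expressed fusions sorted by FACS into six bins by GFP to DsRed ratio, PSI derived from sequencing read proportions per bin multiplied by bin number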
Details: c terminus: a fixed tail appended
READOUT_TYPE: protein stability index
Lab note: jot the number down without any unit.

MUTATION_KEY	protein stability index
R4C	4.34
A14Q	4.8
A16Q	4.89
E15W	3.87
E13A	4.51
R4M	4.57
K18T	4.29
A10W	4.73

State the recorded protein stability index for this entry: R3W
4.4

State the recorded protein stability index for this entry: L22N
4.62

State the recorded protein stability index for this entry: A10I
4.55

Cited source for all entries: the supplement of paper PMC10567573
